Numbers sourced from ChEMBL document CHEMBL4428029.

molecular target: Gamma-secretase; experiment: Inhibition of gamma secretase in human MCF7 cells assessed as reduction in amyloid beta 40 after 3 days by Western blot analysis
quantity-kind: IC50 (nM)

>>> reported_result("O=C(O)CC[C@H]1CC[C@@](c2cc(F)ccc2F)(S(=O)(=O)c2ccc(Cl)cc2)CC1 [MK-0752]")
5

* * *

biological target: UniProt P29120; assay: Inhibition of recombinant C-terminal truncated human SPC3 expressed in drosophila Schneider 2 cells after 1 hr by spectrofluorometry
Sequence (P29120 whole entry, the tested form may be a part): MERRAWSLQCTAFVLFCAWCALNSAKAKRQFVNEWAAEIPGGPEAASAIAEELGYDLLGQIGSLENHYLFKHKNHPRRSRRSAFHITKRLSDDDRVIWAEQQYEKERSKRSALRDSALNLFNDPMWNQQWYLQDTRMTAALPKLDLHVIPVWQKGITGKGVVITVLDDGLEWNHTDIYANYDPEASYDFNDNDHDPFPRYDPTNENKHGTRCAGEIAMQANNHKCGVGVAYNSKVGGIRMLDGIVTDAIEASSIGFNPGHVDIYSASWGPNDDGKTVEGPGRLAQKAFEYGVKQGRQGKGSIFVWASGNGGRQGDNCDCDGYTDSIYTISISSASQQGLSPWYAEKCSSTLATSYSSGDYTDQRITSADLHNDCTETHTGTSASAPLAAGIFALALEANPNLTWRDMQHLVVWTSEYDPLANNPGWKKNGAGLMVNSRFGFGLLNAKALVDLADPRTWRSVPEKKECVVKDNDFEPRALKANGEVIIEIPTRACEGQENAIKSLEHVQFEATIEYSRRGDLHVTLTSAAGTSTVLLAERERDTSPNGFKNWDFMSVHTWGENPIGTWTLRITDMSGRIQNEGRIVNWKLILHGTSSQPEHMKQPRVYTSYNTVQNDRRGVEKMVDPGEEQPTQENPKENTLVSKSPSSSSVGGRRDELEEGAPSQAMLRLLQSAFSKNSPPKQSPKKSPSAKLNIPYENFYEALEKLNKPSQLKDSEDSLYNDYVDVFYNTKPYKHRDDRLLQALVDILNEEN
Residues, ends and D or L forms follow the SMILES beside them. *: point of attachment. Decanoyl = CCCCCCCCCC(=O)*; CH2Cl = ClC*
quantity-kind: Ki

>>> reported_result("CCCCCCCCCC(=O)N[C@@H](CCCNC(=N)N)C(=O)N[C@H](C(=O)N[C@@H](CCCCN)C(=O)N[C@@H](CCCNC(=N)N)C(=O)CCl)C(C)C (Decanoyl-RVKR-CH2Cl)")
"2 nM"
